# Test system: NCI-H226 lung
# test-description: NCI tumour cell line growth inhibition, 48 h
readout-kind: TGI (µM)
Numbers only here, please. The scale is µM.

{"columns": ["compound", "readout-value"],
 "data": [
  ["O=c1c2ccccc2sc2c(CO)ccc(NCCN3CCCCC3)c12", 10.6]
]}

Let us move to another entry and its TGI.
What TGI value was documented for this compound, COc1ccc2c(c1)c(-c1nc(-c3c[nH]c4ncccc34)cs1)cn2CCCN1CCOCC1 ? 15.9

###

# Tested on: MCF7 breast
# test-description: NCI tumour cell line growth inhibition, 48 h
readout-kind: TGI

{"columns": ["compound", "TGI"],
 "data": [
  ["O=[N+]([O-])c1ccc(Cl)c2c([N+](=O)[O-])cccc12", "> 10 µM"],
  ["O=c1oc2ccc3ccccc3c2cc1-c1cn2ccsc2n1", "19 µM"],
  ["O=c1c(F)cn2c(=O)n1CCCCCCCn1c(=O)c(F)cn(c1=O)CCCCCCC2", "> 100 µM"],
  ["c1ccc(-c2[nH]ncc2-c2ccnc(-c3ccc(OCCn4ccnc4)cc3)c2)nc1", "> 25 µM"],
  ["CN(O)C(=O)/C=C/c1ccc(OCc2cccc(Cl)c2)cc1", "> 100 µM"]
]}

What TGI value was documented for this compound, COc1ccc(C(=O)c2cc(OC)c(OC)c(OC)c2OC)cc1O ? > 100 µM

What TGI value was documented for this compound, Nc1nc2c(c3cnccc13)C(c1ccc(Cl)c(Cl)c1)Cc1cnccc1-2 (configuration not stated) ? 11.7 µM

Origin of the recorded values: PubChem BioAssay (NCI)
